Cited source: patent US20250129104A1

# target.of.assay: recombinant DYRK1A kinase (Homo sapiens (Human), UniProt Q13627)
# test.details: DYRK1A kinase assay (Ser/Thr 18 peptide Z-lyte FRET assay)
# recorded.conditions: DYRK1A kinase activity; 15 μM ATP, 1 h room temperature; method text calls the value IC50
reported.property: EC50 (nM)

Some compounds with known EC50 results, for comparison:
Query block: Recorded EC50 for CC(C)Nc1ncc2c(-c3ccc4ncnn4c3)c[nH]c2n1 [Compound 726] with recombinant DYRK1A kinase (Homo sapiens (Human), UniProt Q13627), please?
Result block: 22.4

Query block: Also check Cn1nnc2ccc(-c3c[nH]c4nc(NCC(F)(F)F)ncc34)cc21 [Compound 824]
Result block: 3.4

Query block: Also check CO[C@H]1CC[C@@H](Nc2ncc3c(-c4ccc5ncccc5c4)c[nH]c3n2)CC1 [Compound 1885]
Result block: 9

Query block: Also check CCOc1nc(N[C@H](C)C(F)(F)F)nc2[nH]cc(-c3cc(F)c4nccn4c3)c12 [Compound 2189]
Result block: 8.1

Query block: Also check Cc1nc2ncc(-c3c[nH]c4nc(CC(C)C)ncc34)cc2n1C(C)C [Compound 585]
Result block: 17.9

Query block: Also check Cc1nc2c(F)cc(-c3c[nH]c4nc(NCC5CCN(C)CC5)ncc34)cc2n1C(C)C [Compound 529]
Result block: 9.3

[P] CC(C)(F)CNc1ncc2c(-c3cc(F)c4nccn4c3)c[nH]c2n1 [Compound 199]
[Q] Fc1cnc2ccc(-c3c[nH]c4nc(C5CC5)ncc34)cn12 [Compound 145]
Query block: Determine, for P and Q , which has the greater value of EC50. Identify your selection by its label.
Result block: Q

[I] Cn1cc2cc(-c3c[nH]c4nc(NCC(C)(C)F)ncc34)ccc2n1 [Compound 492]
[II] FC1(CNc2ncc3c(-c4ccc5ncnn5c4)c[nH]c3n2)CC1 [Compound 739]
Query block: Which of these two has the smaller recorded EC50: I or II ? Identify your selection by its label.
Result block: II
(II: 32.6 nM, I: 123 nM)

[P] COc1nc(NC2CCC(F)(F)CC2)nc2[nH]cc(-c3cnc4nc(C)n(CC(F)F)c4c3)c12 [Compound 2272]
[Q] C[C@]1(O)CC[C@@H](Nc2ncc3c(-c4ccc5nccn5c4)c[nH]c3n2)CC1 [Compound 2349]
Query block: Determine, for P and Q , which has the greater value of EC50. Identify your selection by its label.
Result block: P
